Measured phosphorylation enrichment of individual entries
# System: c-Abl (mouse);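 also: 11-residue human phosphosite peptides and single-mutation variants displayed on the E. coli surface, counted by deep sequencing, each peptide's frequency after selection divided by its frequency in the unselected input library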;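 also: frequency after pTyr selection over input frequency; kinase dosed for 20-30% of maximal phosphorylation in three min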
# TEST_SUMMARY: phosphorylation enrichment, bacterial display (enrichment ratio); higher = better substrate or ligand; peptides without Tyr show the background
Keep the answer to the number alone.

# MONOMER_SEQUENCE, SYSTEM, phosphorylation enrichment
data = [
    ("DQNVEYKGTVS [FHL1_Y117_W122S]", "c-Abl (mouse)", 0.624),
    ("EWKQKYEESQS [MYH6_Y1462]", "c-Abl (mouse)", 0.706),
    ("IQVNAYFSPIH [ADSL_Y432_D430N]", "c-Abl (mouse)", 1.14),
    ("QDDYSYPSRQM [LDLR_Y847_G844D]", "c-Abl (mouse)", 4.49),
    ("CTTIHYNFTCN [TP53_Y234_M237T_YF]", "c-Abl (mouse)", 0.634),
]

Query block: Given the sequence IYKAAYFGVYD [SLC25A4_Y191_R188K] , what is its reported phosphorylation enrichment?
Result block: 0.865

Query block: Given the sequence GGTPLYRDRQG [AGXT_Y194_M195R] , what is its reported phosphorylation enrichment?
Result block: 0.5

Query block: Given the sequence PTTKTYFPHFG [HBA1_Y43_D48G] , what is its reported phosphorylation enrichment?
Result block: 0.491

Query block: Given the sequence EFITRYIDSLK [PSMA7_Y110_A112D_YF] , what is its reported phosphorylation enrichment?
Result block: 0.483

Query block: Given the sequence EPGNLYIAKVE [CNTN4_Y180_T176P] , what is its reported phosphorylation enrichment?
Result block: 0.665

Query block: Given the sequence PELINYHQHNF [BTK_Y361_S366F] , what is its reported phosphorylation enrichment?
Result block: 0.919

Query block: Given the sequence LQLLGHRPVFS [CHST6_Y358_Y358H_YF] , what is its reported phosphorylation enrichment?
Result block: 0.919

Query block: Given the sequence EHLNRYISDTF [TTLL10_Y446] , what is its reported phosphorylation enrichment?
Result block: 0.655

Query block: Given the sequence LITTLYSGFLG [KCNQ1_Y267_I268S] , what is its reported phosphorylation enrichment?
Result block: 1.22

Query block: Given the sequence EQRRAYLEGTC [HLA-C_Y183_L180R] , what is its reported phosphorylation enrichment?
Result block: 0.822

Query block: Given the sequence MKGEYYRYLAE [YWHAG_Y131_D129E] , what is its reported phosphorylation enrichment?
Result block: 0.82

Query block: Given the sequence SVSVNYGDLVQ [GRAP_Y101_Q104L] , what is its reported phosphorylation enrichment?
Result block: 0.61

* * *

# SYSTEM: c-Src SH2;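 also: peptide library displayed on the E. coli surface as eCPX fusions, selected cells deep-sequenced, score is each peptide's frequency after selection divided by its frequency in the input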
# TEST_SUMMARY: SH2 binding enrichment of the phosphorylated peptide, bacterial display (enrichment ratio); higher = better substrate or ligand; peptides without Tyr show the background
Measured SH2 binding enrichment of individual entries
Keep the answer to the number alone.

Solved entries:
# MONOMER_SEQUENCE, NUMBER
rows = [
    ("PIDLFYLMDLS [ITGB2_Y131_YF]", 0.524),
    ("YTFNSYYMHWV [IGHV1-46_Y51_T49N]", 0.839),
    ("PVGVLYKVKVF [PTS_Y128_YF]", 0.418),
    ("TVQIMYGCDVG [HLA-A_Y123_I119V]", 0.545),
    ("QLRPGYIPIPV [BAG3_Y93]", 0.493),
]

Query block: Given the sequence INSLKYAYNVS [EIF2B5_Y583_I587V] , what is its reported SH2 binding enrichment?
Result block: 0.654

Query block: Given the sequence RRERPYGGGGG [FUS_Y526] , what is its reported SH2 binding enrichment?
Result block: 0.436

Query block: Given the sequence VDLSKYITTIA [FAS_Y232] , what is its reported SH2 binding enrichment?
Result block: 0.451

Query block: Given the sequence RQEEEYKRFSE [SFSWAP_Y133_L136F] , what is its reported SH2 binding enrichment?
Result block: 0.609

Query block: Given the sequence LERDIYNREEF [HLA-DPB1_Y59_Y57D] , what is its reported SH2 binding enrichment?
Result block: 0.678

Query block: Given the sequence DFDNLYFWDQD [ERBB2_Y1221_A1216D_YF] , what is its reported SH2 binding enrichment?
Result block: 0.333

Query block: Given the sequence SVTCTYSPVLN [TP53_Y126_A129V] , what is its reported SH2 binding enrichment?
Result block: 0.538

Query block: Given the sequence EALDFYGEVRI [PTEN_Y155_T160I] , what is its reported SH2 binding enrichment?
Result block: 0.499

Query block: Given the sequence FETVKYINNER [ABCB7_Y345_F346I_YF] , what is its reported SH2 binding enrichment?
Result block: 0.441
